Cited source: patent US9309222B2

- assay_system: human RORγt LBD (Homo sapiens)
- assay_notes: RORγt reporter assay (GAL4-RORγt LBD luciferase in HEK293T cells)
- particulars: HEK293T cells, 24 hours compound treatment
# fulfilled = IC50 below 400 nM (exclusive); not fulfilled = IC50 at/above 400 nM

molecule	cat
OC(c1ccccc1)(c1ccc2nc(C(F)(F)F)c(-c3ccccc3)c(C(F)(F)F)c2c1)C1CCNCC1 (centres unmarked)	not fulfilled
CN(C)c1nc2ccc(C(O)(c3cccnc3)c3ccccc3Cl)cc2c(Cl)c1-c1ccccc1 (centres unmarked)	fulfilled
Cc1noc(C)c1C(O)(c1ccc(Cl)cc1)c1ccc2nc(Cl)c(-c3ccccc3)c(Cl)c2c1 (centres unmarked)	not fulfilled
CN(C)c1nc2ccc(C(O)(c3cccnc3)c3ccccn3)cc2c(Cl)c1-c1ccccc1 (centres unmarked)	not fulfilled
Cn1cncc1C(O)(c1ccc2nc(C(F)(F)F)c(-c3ccccc3)c(C(F)(F)F)c2c1)c1ccccn1 (racemic) [Example 185a]	fulfilled
Cn1cncc1C(O)(c1ccc2nc(C(F)(F)F)c(-c3ccccc3)c(C(F)(F)F)c2c1)c1ccccn1 (single isomer, unassigned) [Example 185c]	not fulfilled
COc1nc2c(C)cc(C(O)(c3ccc(C(F)(F)F)nc3)c3cncn3C)cc2c(Cl)c1-c1ccc(OC(F)(F)F)cc1 (single isomer, unassigned) [Example 183b]	not fulfilled
COc1nc2c(C)cc(C(O)(c3ccc(C(F)(F)F)nc3)c3cncn3C)cc2c(C#N)c1-c1cccc(F)c1 (single isomer, unassigned) [Example 179c]	not fulfilled
COc1cccc(C(O)(c2ccc(C)nc2)c2ccc3nc(Cl)c(-c4ccccc4)c(Cl)c3c2)c1 (centres unmarked)	fulfilled
COCCN(C)c1nc2ccc(C(O)(c3ccncc3)c3cncn3C)cc2c(Cl)c1-c1ccccc1 (centres unmarked)	fulfilled
CCc1nc2ccc(C(O)(c3ccncc3)c3cncn3C)cc2c(N(C)C)c1-c1ccccc1 (centres unmarked)	fulfilled

====

- assay_system: human RORγt LBD (Homo sapiens, UniProt P51449)
- Construct: expressed in transfected cells
- assay_notes: RORγt reporter assay (GAL4-RORγt LBD luciferase in HEK293T cells)
- Format: cell-based
- particulars: HEK293T cells, 24 hours compound treatment
pIC50: −log10 of the molar value.
Listed below: pIC50 values for each entry.
assay_readout: pIC50

molecule	assay_readout	endpoint_result
CCOc1nc2ccc(C(O)(c3ccncc3)c3cncn3C)cc2c(Cl)c1-c1ccccc1 (stereo not shown) [Example 88]	pIC50	7.43
CCN(CC)c1nc2ccc(C(O)(c3cccnc3)c3cccc(Cl)c3)cc2c(C#N)c1-c1ccccc1 (stereo not shown) [Example 113]	pIC50	7.07
COc1ccc(C(O)(c2ccc3nc(Cl)c(-c4ccccc4)c(Cl)c3c2)c2c(C)noc2C)cn1 (stereo not shown) [Example 129]	pIC50	6.80

====

- assay_system: human RORγt LBD (Homo sapiens)
- Sequence (P51449 258-518): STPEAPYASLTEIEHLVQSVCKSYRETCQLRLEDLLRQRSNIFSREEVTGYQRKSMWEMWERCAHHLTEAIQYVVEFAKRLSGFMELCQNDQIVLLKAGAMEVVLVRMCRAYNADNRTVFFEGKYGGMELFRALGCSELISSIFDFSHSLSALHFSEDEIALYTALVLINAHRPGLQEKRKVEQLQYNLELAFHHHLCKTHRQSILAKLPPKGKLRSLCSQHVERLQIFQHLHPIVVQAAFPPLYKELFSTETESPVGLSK
- assay_notes: RORγt reporter assay (GAL4-RORγt LBD luciferase in HEK293T cells)
- particulars: HEK293T cells, 24 hours compound treatment
assay_readout: log10 IC50 (log10 of the value in nM)

compound	log10 IC50
Cc1cc(C(O)(c2cc(C)c3nc(Cl)c(-c4ccccc4)c(Cl)c3c2)c2cncn2C)ccn1 (centres unmarked)	1.23
CN(C)c1nc2ccc(C(O)(c3ccncc3)c3cncn3C)cc2c(O)c1-c1ccccc1 (centres unmarked)	3.04
Cn1cncc1C(N)(c1ccc2nc(Cl)c(-c3ccccc3)c(Cl)c2c1)c1ccccn1 (centres unmarked)	3.32
CC(=O)N1CCC(C(O)(c2ccc3nc(C(F)(F)F)c(-c4ccccc4)c(C(F)(F)F)c3c2)c2cncn2C)CC1 (single isomer, unassigned) [Example 181c]	1.72
CCN(CC)c1nc2ccc(C(O)(c3cccnc3)c3cccc(Cl)c3)cc2c(Cl)c1-c1ccccc1 (centres unmarked)	2.20
Cn1cncc1C(O)(c1ccc(Cl)cc1)c1ccc2nc(Cl)c(-c3ccccc3Cl)c(Cl)c2c1 (single isomer, unassigned) [Example 153b]	2.84
Cc1cc(C(O)(c2ccc3nc(Cl)c(-c4ccccc4)c(Cl)c3c2)c2cncn2C)cc(Cl)n1 (centres unmarked)	0.72
OC(c1ccc(Cl)nc1)(c1cccc(F)c1)c1ccc2nc(Cl)c(-c3ccccc3)c(Cl)c2c1 (centres unmarked)	2.20
Cc1cc(C(O)(c2ccc(C(F)(F)F)nc2)c2cncn2C)cc2c(C#N)c(-c3cccc(F)c3)c(C#N)nc12 (single isomer, unassigned) [Example 176b]	3.18
COCOc1ccc(C(O)(c2cccnc2)c2ccc3nc(Cl)c(-c4ccccc4)c(Cl)c3c2)cc1 (centres unmarked)	2.90
Cc1nn(C)c(C)c1C(O)(c1ccccc1)c1ccc2nc(Cl)c(-c3ccccc3Cl)c(Cl)c2c1 (centres unmarked)	3.08
Cn1cncc1C(O)(c1ccc(Cl)cc1)c1ccc2nc(Cl)c(-c3ccccc3Cl)c(Cl)c2c1 (single isomer, unassigned) [Example 153d]	3.18
